target: NIH/3T3 cells overexpressing FGFR3 WT-TACC3 fusion protein (Homo sapiens, UniProt P22607); construct: fused on or other part: Q9Y6A5 (Transforming acidic coiled-coil-containing protein 3); experiment: NIH/3T3 FGFR3 WT-TACC3 cell proliferation assay; assay type: cell-based; settings: 72-hr incubation, CellTiter Glo; read-out: NIH/3T3 FGFR3 WT-TACC3 CTG (IC50)
Sequence (P22607 whole entry, change not shown, the tested form may be a part): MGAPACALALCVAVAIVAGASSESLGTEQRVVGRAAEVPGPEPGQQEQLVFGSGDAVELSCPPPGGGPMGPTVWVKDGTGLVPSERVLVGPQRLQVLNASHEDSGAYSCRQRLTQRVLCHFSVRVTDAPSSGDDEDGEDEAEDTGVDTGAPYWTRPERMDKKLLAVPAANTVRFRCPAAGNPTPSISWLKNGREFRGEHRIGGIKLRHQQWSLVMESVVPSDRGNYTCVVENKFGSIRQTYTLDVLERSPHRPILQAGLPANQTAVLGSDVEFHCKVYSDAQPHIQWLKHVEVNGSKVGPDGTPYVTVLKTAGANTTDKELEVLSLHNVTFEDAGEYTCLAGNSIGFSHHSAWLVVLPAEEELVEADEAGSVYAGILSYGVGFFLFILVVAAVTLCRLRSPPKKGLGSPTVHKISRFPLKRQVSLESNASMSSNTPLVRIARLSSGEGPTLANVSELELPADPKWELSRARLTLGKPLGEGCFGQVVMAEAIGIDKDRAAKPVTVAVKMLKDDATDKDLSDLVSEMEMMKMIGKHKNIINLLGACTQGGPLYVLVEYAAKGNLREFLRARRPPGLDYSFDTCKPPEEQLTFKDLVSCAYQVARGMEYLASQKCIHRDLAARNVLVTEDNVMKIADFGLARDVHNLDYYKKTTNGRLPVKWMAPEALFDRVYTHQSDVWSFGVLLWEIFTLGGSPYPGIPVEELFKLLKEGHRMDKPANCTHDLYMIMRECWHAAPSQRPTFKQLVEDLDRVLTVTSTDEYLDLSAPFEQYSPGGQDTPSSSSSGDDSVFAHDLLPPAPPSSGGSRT
Simple rule here: GI50 less than 30 nM is 1, otherwise 0.

Request: State whether 30 nM exceeds GI50 recorded for COc1cnc2nc(-c3c(N[C@@H](C)c4ncccn4)c4nn(C)cc4[nH]c3=O)[nH]c2c1 .
Response: 1

Request: State whether 30 nM exceeds GI50 recorded for CCOc1cc2nc(-c3c(N[C@@H](C)c4ncccn4)c4nn(CC)cc4[nH]c3=O)[nH]c2cc1OCC .
Response: 1

Request: State whether 30 nM exceeds GI50 recorded for C[C@H](Nc1c(-c2nc3ccc(F)cc3[nH]2)c(=O)[nH]c2cn(C)nc12)c1ncccn1 .
Response: 0

Request: State whether 30 nM exceeds GI50 recorded for CCOc1ccc2nc(-c3c(N[C@@H](C)c4ncccn4)c4nn(CC)cc4[nH]c3=O)[nH]c2c1 .
Response: 1

Request: State whether 30 nM exceeds GI50 recorded for CCn1cc2[nH]c(=O)c(-c3nc4cc(OC)c(OC)cc4[nH]3)c(NC(C)c3cocn3)c2n1 (single isomer, unassigned) .
Response: 0

Request: State whether 30 nM exceeds GI50 recorded for COc1cc2nc(-c3c(NC(c4ncccn4)C4CC4)c4nn(C)cc4[nH]c3=O)[nH]c2cc1OC (single isomer, unassigned) .
Response: 1

Request: State whether 30 nM exceeds GI50 recorded for CC(C)[C@H](Nc1c(-c2nc3ncc(N(C)C)cc3[nH]2)c(=O)[nH]c2cn(C)nc12)c1ncccn1 (stereo in doubt) .
Response: 0

====

Biological target: human FGFR3 V555M enzyme (cytoplasmic domain carrying V555M mutation) (Homo sapiens, UniProt P22607, V555M)
Construct: human FGFR3 V555M enzyme (cytoplasmic domain carrying V555M mutation, from Carna Biosciences)
Sequence (P22607 397-806 V555M): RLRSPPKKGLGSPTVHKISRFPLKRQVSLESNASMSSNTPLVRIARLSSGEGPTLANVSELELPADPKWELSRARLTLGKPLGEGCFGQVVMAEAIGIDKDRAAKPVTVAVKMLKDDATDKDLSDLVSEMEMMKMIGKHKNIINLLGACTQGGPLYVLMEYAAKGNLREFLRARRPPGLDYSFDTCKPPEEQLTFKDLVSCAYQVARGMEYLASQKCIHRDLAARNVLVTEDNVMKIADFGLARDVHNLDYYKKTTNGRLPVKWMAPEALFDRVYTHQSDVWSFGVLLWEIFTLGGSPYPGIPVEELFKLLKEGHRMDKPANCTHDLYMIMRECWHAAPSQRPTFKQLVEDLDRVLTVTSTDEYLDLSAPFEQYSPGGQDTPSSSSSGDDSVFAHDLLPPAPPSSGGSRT
Test: FGFR3 V555M mobility shift assay (enzymatic assay)
Conditions: 30 μM ATP, 45 minutes at 30° C., Caliper EZ reader II
Description: FGFR3 V555M Mobility Shift Assay (Enzymatic Assay) In a final reaction volume of 25 μL, 0.04 ng/μL human FGFR3 V555M enzyme (cytoplasmic domain carrying V555M mutation, from Carna Biosciences) was incubated with 30 μM ATP, 1 μM FL-peptide 30 substrate and 250 nL of testing compound (1% DMSO final) in assay buffer (100 mM HEPES pH 7.4, 10 mM MgCl2, 0.003% Brij35, 1 mM DTT). […]
OBSERVED PROPERTY: IC50 (nM)
Only the number, expressed in nM, is required.

Request: Fill blank: measured IC50 of the compound CC[C@H](Nc1c(-c2nc3ccc(OCCOC)cc3[nH]2)c(=O)[nH]c2cn(C)nc12)c1ncccn1 (single isomer, unassigned) is ____.
Response: 0.634

Request: Fill blank: measured IC50 of the compound CC(C)C(Nc1c(-c2nc3cnc(N(C)C)cc3[nH]2)c(=O)[nH]c2cn(C)nc12)c1ncccn1 (single isomer, unassigned) is ____.
Response: 1.05

Request: Fill blank: measured IC50 of the compound CCn1cc2[nH]c(=O)c(-c3nc4ccc(OC)cc4[nH]3)c(N[C@H](C)c3cocn3)c2n1 (single isomer, unassigned) is ____.
Response: 32.8
